biological target: δ opioid receptors (MVD) (Mus musculus, UniProt P32300); construct: from tissue; host or cells: mouse (ICR) isolated vas deferens; test: Mouse isolated vas deferens (MVD) assay, opioid agonist; conditions: Table 39; read-out: MVD opioid(delta) agonist (IC50; nM)
Sequence (P32300 whole entry): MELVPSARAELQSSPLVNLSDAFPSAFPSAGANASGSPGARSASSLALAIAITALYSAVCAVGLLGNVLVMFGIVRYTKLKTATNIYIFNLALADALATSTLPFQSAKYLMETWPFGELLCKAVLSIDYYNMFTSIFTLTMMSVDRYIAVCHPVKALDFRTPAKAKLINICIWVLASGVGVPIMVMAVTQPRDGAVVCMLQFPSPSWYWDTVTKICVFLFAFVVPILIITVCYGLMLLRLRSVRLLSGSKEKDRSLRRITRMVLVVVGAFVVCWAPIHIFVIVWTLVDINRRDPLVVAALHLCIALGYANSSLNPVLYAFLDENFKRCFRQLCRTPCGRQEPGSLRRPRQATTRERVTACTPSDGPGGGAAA
quantity.measured: IC50 (nM)
Number only, in nM; omit the unit.

Challenge: Which IC50 value belongs to CC(C)C[C@H](NC(=O)[C@@H]1CCCN1C(=O)[C@H](CC[S+](C)[O-])NC(=O)[C@H](Cc1ccccc1)NC(=O)CNC(=O)[C@@H](C)NC(=O)[C@@H](N)Cc1ccc(O)cc1)C(=O)N[C@@H](Cc1c[nH]c2ccccc12)C(=O)OCc1cc(C(F)(F)F)cc(C(F)(F)F)c1 (stereo partly shown) [TY023] ?
Response given: 33
